# Experimental system: T1, recombinant human 4R0N tau (human, UniProt P10636 2-758)
# T1 construct: also called recombinant 4R0N human tau; P10636-6
# T1 sequence (P10636 other isoform, or with tags, fused parts or gaps limits assumed): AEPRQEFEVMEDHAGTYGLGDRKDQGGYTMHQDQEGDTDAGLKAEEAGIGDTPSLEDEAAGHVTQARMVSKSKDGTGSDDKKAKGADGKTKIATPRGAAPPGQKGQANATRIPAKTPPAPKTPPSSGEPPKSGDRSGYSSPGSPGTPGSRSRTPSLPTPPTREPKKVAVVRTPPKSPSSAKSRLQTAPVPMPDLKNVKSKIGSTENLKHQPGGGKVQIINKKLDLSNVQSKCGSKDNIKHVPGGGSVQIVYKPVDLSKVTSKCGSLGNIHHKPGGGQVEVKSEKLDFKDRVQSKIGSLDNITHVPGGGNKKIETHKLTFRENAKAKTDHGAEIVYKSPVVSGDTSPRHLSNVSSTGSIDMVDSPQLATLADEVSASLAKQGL
# Measurement description: SPR Biacore T200; antibody captured by anti-human Fc; tau as analyte; global 1:1 fit
The following binders are listed with their measured Kd values.

Binder	Kd
hu9F5VHv9/hu9F5VLv8_DIM19 (antibody, V domains shown) VH: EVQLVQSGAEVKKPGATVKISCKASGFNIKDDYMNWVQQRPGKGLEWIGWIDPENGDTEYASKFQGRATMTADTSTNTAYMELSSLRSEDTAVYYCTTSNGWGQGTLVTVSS VL: DIQMTQSPFSLPVTPGESASISCRSSKSLSHSNGITYLYWYIQKPGQSPQLLIYQISNRASGVPNRFSSSGSGTDFTLKISRVEAEDVGVYYCAQNIELPLTFGQGTKLEIK	0.597 nM
hu9F5VHv9/hu9F5VLv8_DIM8 (antibody, V domains shown) VH: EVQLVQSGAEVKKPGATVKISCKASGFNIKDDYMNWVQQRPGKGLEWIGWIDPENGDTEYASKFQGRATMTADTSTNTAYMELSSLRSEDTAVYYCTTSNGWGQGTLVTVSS VL: DIQMTQSPFSLPVTPGESASISCRSSKSLGHSNGITYLYWYQQKPGQSPQLLIYQKSNRASGVPNRFSSSGSGTDFTLKISRVEAEDVGVYYCAQNIELPLTFGQGTKLEIK	0.435 nM
hu9F5VHv10/hu9F5VLv9_DIM5 (antibody, V domains shown) VH: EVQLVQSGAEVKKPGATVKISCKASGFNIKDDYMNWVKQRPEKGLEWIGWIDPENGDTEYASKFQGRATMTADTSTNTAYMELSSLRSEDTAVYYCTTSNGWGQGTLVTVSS VL: DIQMTQSPFSLPVTPGESASISCRSSKSLGHSNGITYLYWYQQKPGQSPQLLIYQGSNRASGVPDRFSSSGSGTDFTLKISRVEAEDVGVYYCAQNIELPLTFGQGTKLEIK	0.542 nM
